Experiment: TAMU_HCS_1.5hr_SingleDonor1434_Cytotoxicity: Cytotoxicity Assessment using High-content Screening (HCS) Fluorescent Imaging for the Texas A&M University (TAMU) 1.5-hr Human Induced Pluripotent Stem Cell (iPSC)-derived Cardiotoxicity Assay (AID 2284234)
Records with an inconclusive call do not appear. Activity calls are given as the source filed them. How the source made its calls: active means hit-call score of the fitted dose curve at least 0.9, where 1 is the maximum; inconclusive means response in the unintended direction; inactive means score below 0.9.
Classes used: active, inactive

>>> class_name("CCCc1cc(=O)[nH]c(=S)[nH]1")
"inactive"
>>> class_name("COC(=O)c1ccc(O)cc1")
"inactive"
>>> class_name("CC(=O)Oc1ccccc1C(=O)O")
"inactive"
>>> class_name("CCOc1ccc2c(c1)C(C)=CC(C)(C)N2")
"active"
>>> class_name("O=c1[nH]cc(F)c(=O)[nH]1")
"inactive"

====

Assay: Tanguay_ZF_120hpf_SNOU_legacy: (Legacy) Oregon State University Tanguay Lab 120 Hour Post-fertilization zebrafish Assay for Snout Malformation (AID 2283637)
Inconclusive results are not listed. Active and inactive are the calls of the source. Rule for the calls: active = hit-call score of the fitted dose curve at least 0.9, where 1 is the maximum; inconclusive = response in the unintended direction; inactive = score below 0.9.
measurement-label: AC50

>>> measured_result("CCCCCCCC=O")
"inactive"
>>> measured_result("NCCO")
"inactive"
>>> measured_result("O=C(O)CCCCC(=O)O")
"inactive"
>>> measured_result("Cc1cc(=O)[nH]c(=S)[nH]1")
"inactive"
>>> measured_result("CN1CCN(Cc2cc(-c3ccc4[nH]c(=O)oc4c3)co2)[C@@H](c2ccc(F)cc2)C1")
"25.6 µM (active)"
>>> measured_result("Cc1cc(NC(=O)C(=O)O)cc(C)c1Oc1ccc(O)c2c1CCC2")
"0.0742 µM (active)"
>>> measured_result("NS(=O)(=O)c1cc2c(cc1Cl)NCNS2(=O)=O")
"inactive"
>>> measured_result("c1cc(-c2ccncc2)ccn1")
"inactive"
>>> measured_result("CCCCN(CCCC)CCCC")
"inactive"
>>> measured_result("C[C@]12C=CC(=O)C=C1CC[C@@H]1[C@@H]2C(=O)C[C@@]2(C)[C@H]1CC[C@]2(O)C(=O)CO")
"inactive"
>>> measured_result("COc1ccc(S(=O)(=O)N2C(=O)[C@@](c3ccccc3OC)(N3C[C@H](O)C[C@H]3C(=O)N(C)C)c3cc(Cl)ccc32)c(OC)c1")
"inactive"
>>> measured_result("CCCCCCC(=O)OCC")
"inactive"

====

Read-out: E-selectin (Homo sapiens) (UniProt P16581)
Sequence (P16581 whole entry, looked up): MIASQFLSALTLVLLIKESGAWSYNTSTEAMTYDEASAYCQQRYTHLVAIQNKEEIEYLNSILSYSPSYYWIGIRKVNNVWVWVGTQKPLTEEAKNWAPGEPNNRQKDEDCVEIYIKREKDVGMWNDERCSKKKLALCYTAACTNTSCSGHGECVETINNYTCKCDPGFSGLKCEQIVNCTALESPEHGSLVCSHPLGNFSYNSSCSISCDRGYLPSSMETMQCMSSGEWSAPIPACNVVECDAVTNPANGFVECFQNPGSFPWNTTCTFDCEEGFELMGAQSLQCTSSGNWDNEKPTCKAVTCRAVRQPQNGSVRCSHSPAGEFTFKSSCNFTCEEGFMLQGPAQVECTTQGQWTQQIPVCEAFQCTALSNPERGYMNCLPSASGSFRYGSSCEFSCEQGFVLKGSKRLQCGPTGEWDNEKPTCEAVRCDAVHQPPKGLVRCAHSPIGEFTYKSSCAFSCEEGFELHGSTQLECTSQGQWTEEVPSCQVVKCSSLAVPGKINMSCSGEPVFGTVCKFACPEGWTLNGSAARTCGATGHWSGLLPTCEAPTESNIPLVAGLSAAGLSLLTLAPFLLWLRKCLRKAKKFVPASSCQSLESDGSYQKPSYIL
Assay: BSK_3C_Eselectin: BioMAP Diversity Plus: 3C Assay for Eselectin Biomarker Activity (AID 2283015)
Conditions: primary human endothelial cells (HUVEC); actives raise or lower the signal
Active and inactive are the calls of the source. Rule for the calls: active = hit-call score of the fitted dose curve at least 0.9, where 1 is the maximum; inactive = score below 0.9.
Classes used: true (active), false (inactive)

>>> class_name("Cc1ccc(C(C)C)c(O)c1")
"false"
>>> class_name("O=C(N[C@@H](Cc1ccccc1)[C@@H](O)C(=O)N1C[C@@H](O)[C@@H](O)C1)c1cc2cc(Cl)ccc2[nH]1")
"false"
>>> class_name("Cc1ccc(C)c(C)c1")
"false"
>>> class_name("Cc1ccc2ncccc2c1")
"false"
>>> class_name("O=C(OCCCCCOC(=O)c1ccccc1)c1ccccc1")
"false"
>>> class_name("C[Si]1(C)O[Si](C)(C)O[Si](C)(C)O[Si](C)(C)O1")
"false"
>>> class_name("CC1=C(/C=C/C(C)=C/C=C/C(C)=C/CO)C(C)(C)CCC1")
"true"
>>> class_name("C[C@]12C=CC(=O)C=C1CC[C@@H]1[C@@H]2C(=O)C[C@@]2(C)[C@H]1CC[C@]2(O)C(=O)CO")
"false"
>>> class_name("CCCCCCCCCCCC(=O)OC")
"false"
>>> class_name("COc1ccc2c(c1)c(CC(=O)O)c(C)n2C(=O)c1ccc(Cl)cc1")
"false"
>>> class_name("CCCCCCCCCCCCCCCCCC(=O)O")
"false"
>>> class_name("Nc1ccc2c(c1)C(=O)c1ccccc1C2=O")
"false"
>>> class_name("CN1CCN(Cc2cc(-c3ccc4[nH]c(=O)oc4c3)co2)[C@@H](c2ccc(F)cc2)C1")
"false"
>>> class_name("Cc1nc(-c2ccc3c(c2)CCN(CCC2CCC(NC(=O)/C=C/c4ccc(F)cc4)CC2)CC3)no1 (stereo unspecified)")
"false"
>>> class_name("CCCCCC(=O)O")
"false"
>>> class_name("FC(F)(F)C(F)(F)C(F)(F)C(F)(F)C(F)(F)C(F)(F)CCI")
"false"
>>> class_name("CCCCCCCCCCCCCCCC")
"false"
>>> class_name("O=C(O)CCCCC(=O)O")
"false"
>>> class_name("CNC(=O)[C@H]1O[C@@H](n2cnc3c(NCc4cc(Cl)ccc4OCc4cc(C)no4)ncnc32)[C@H](O)[C@@H]1N")
"false"
>>> class_name("Cc1oc(-c2ccccc2)nc1CCOc1cccc2c1ccn2CCC(=O)O")
"false"
>>> class_name("CNCc1cc(F)ccc1Oc1ccc(Cl)c(Cl)c1")
"true"
>>> class_name("Cc1cccc([N+](=O)[O-])c1C")
"false"
>>> class_name("C=CCc1ccc(O)c(OC)c1")
"false"
>>> class_name("Cc1cc(NC(=O)C(=O)O)cc(C)c1Oc1ccc(O)c2c1CCC2")
"false"
>>> class_name("COc1cc(-c2nc(NC(=O)c3cc4cc(C)cc(C)c4n3CC(=O)O)sc2CCC2CCCCC2)c(OC)cc1Cl")
"true"
>>> class_name("COc1cc(S(=O)(=O)O)c(C)cc1N=Nc1c(O)ccc2cc(S(=O)(=O)O)ccc12")
"false"
>>> class_name("O=C(O)Cc1ccccc1Nc1c(Cl)cccc1Cl")
"false"
>>> class_name("CN1CCCC1=O")
"false"
>>> class_name("NS(=O)(=O)c1cc2c(cc1Cl)NCNS2(=O)=O")
"false"
>>> class_name("Cc1cccc(C)c1O")
"false"
>>> class_name("CC(CO)OC(C)CO (stereo unspecified) (tested in a mixture with another compound)")
"false"
>>> class_name("COc1cc(C=O)ccc1O")
"false"
>>> class_name("CC(=O)Oc1ccccc1C(=O)O")
"false"
>>> class_name("Cc1c(C(=O)O)c(O)cc2c1C(=O)c1c(O)c([C@@H]3O[C@H](CO)[C@@H](O)[C@H](O)[C@H]3O)c(O)c(O)c1C2=O")
"false"
>>> class_name("C=CCOC(=O)c1ccccc1C(=O)OCC=C")
"false"
>>> class_name("CCCCCCC(=O)OCC")
"false"
>>> class_name("Nc1nc(N)c2nc(CNc3ccc(C(=O)N[C@@H](CCC(=O)O)C(=O)O)cc3)cnc2n1")
"false"
>>> class_name("Cc1ccc(N(C)C)cc1")
"false"
>>> class_name("CCOc1ccc2c(c1)C(C)=CC(C)(C)N2")
"false"
>>> class_name("CCCCCCCCCCCCCO")
"true"
>>> class_name("CCCCC(CC)COC(=O)CC(C(=O)OCC(CC)CCCC)S(=O)(=O)O (stereo unspecified)")
"true"
>>> class_name("OC[C@@H](O)[C@@H](O)[C@H](O)[C@H](O)CO")
"false"
>>> class_name("CCCCCCCC=O")
"false"
>>> class_name("CC(=O)OC/C=C(\\C)CCC=C(C)C")
"false"
>>> class_name("COc1ccc(S(=O)(=O)N2C(=O)[C@@](c3ccccc3OC)(N3C[C@H](O)C[C@H]3C(=O)N(C)C)c3cc(Cl)ccc32)c(OC)c1")
"false"
>>> class_name("Cc1ccc(Cl)cc1")
"false"
>>> class_name("Cc1cc(=O)[nH]c(=S)[nH]1")
"false"
>>> class_name("CCCCOC(=O)CCCCCCCCC(=O)OCCCC")
"false"
>>> class_name("Cc1ccccc1Cl")
"false"
>>> class_name("CCNc1cccc(C)c1")
"false"
>>> class_name("CC(C)(C)c1cc(O)c(C(C)(C)C)cc1O")
"false"
